Tested on: PC3 (p53−) (Prostate Adenocarcinoma)
Experiment: Cell viability analysis, prostate cancer PC3
Format: cell-based, human
Details: Homo sapiens, 72 h, read-out: cell viability (survival rate), PC3
The threshold is 90%. Values of viability at 10 µM beneath it are tagged yes; values meeting or exceeding it are tagged no.

Consider the following illustrative entries.
CCCCCCCCCCCCCCCC[n+]1ccccc1 [Cetylpyridinium Chloride]: yes
C[N+](C)(C)CCO.[Cl-] [Choline Chloride]: no

Please examine the following record next.
Just wondering, is viability at 10 µM of Cl.NCCc1ccc(O)c(O)c1 [Dopamine hydrochloride (Inotropin), Dopamine hydrochloride] below 90%? no

src = patent US10105357B2
